assayInfo: Cytotoxicity against mouse J774 cells assessed as cell viability after 72 hrs by Alamar Blue assay
Assay type: cell-based
Below: a set of entries, each annotated with reported CC50 at 72 h.

// solved cases for CC50 at 72 h follow
[[record]]
compound = "CCC1S/C(=N/N=C(\\C)c2ccc(Cl)c(Cl)c2)N(C)C1=O (stereo not given)"
obsvalue = "> 100 µM"

[[record]]
compound = "C/C(=N\\N=C1\\SC(C)C(=O)N1c1ccccc1)c1ccc(Cl)c(Cl)c1 (stereo not given)"
obsvalue = "26.1 µM"

[[record]]
compound = "C/C(=N\\N=C1\\SCC(=O)N1C)c1ccc(Cl)c(Cl)c1"
obsvalue = "> 100 µM"

[[record]]
compound = "C/C(=N\\N=C1\\SCC(=O)N1c1ccccc1)c1ccc(Cl)c(Cl)c1"
obsvalue = "> 100 µM"


// CC50 at 72 h lookup, key: C/C(=N\N=C1\SC(c2ccccc2)C(=O)N1c1ccccc1)c1ccc(Cl)c(Cl)c1 (stereo not given)
27.1 µM

Same question for C/C(=N\N=C1/NC(=O)CS1)c1ccc(Cl)c(Cl)c1 please.
76.5 µM

====

targetDesc: Cruzipain (Trypanosoma cruzi)
assayInfo: Competitive inhibition of Trypanosoma cruzi Cruzain using Z-FR-AMC as substrate at 100 uM preincubated for 10 mins followed by substrate addition measured every 12 secs for 5 mins by fluorescence assay relative to control
Please mark 1 (yes) if the recorded inhibition is equal to or greater than 40%, and 0 (no) if it falls below.

[[record]]
molecule = "CNC(=S)N/N=C(\\C)c1ccc(Cl)c(Cl)c1"
targetdesc = "Cruzipain (Trypanosoma cruzi)"
classassignment = "0 (no)"

[[record]]
molecule = "C/C(=N\\N=C1\\SCC(=O)N1C)c1ccc(Cl)c(Cl)c1"
targetdesc = "Cruzipain (Trypanosoma cruzi)"
classassignment = "0 (no)"

[[record]]
molecule = "C/C(=N\\N=C1\\SCC(=O)N1c1ccccc1)c1ccc(Cl)c(Cl)c1"
targetdesc = "Cruzipain (Trypanosoma cruzi)"
classassignment = "1 (yes)"

[[record]]
molecule = "C/C(=N\\N=C1\\SC(c2ccccc2)C(=O)N1C)c1ccc(Cl)c(Cl)c1 (stereo not drawn)"
targetdesc = "Cruzipain (Trypanosoma cruzi)"
classassignment = "0 (no)"

[[record]]
molecule = "C/C(=N\\N=C1\\SC(C(C)C)C(=O)N1C)c1ccc(Cl)c(Cl)c1 (stereo not drawn)"
targetdesc = "Cruzipain (Trypanosoma cruzi)"
classassignment = "0 (no)"


Tell me whether inhibition is at least 40% here: C/C(=N\N=C1\SC(c2ccccc2)C(=O)N1c1ccccc1)c1ccc(Cl)c(Cl)c1 (stereo not drawn)
0 (no)

Consider next the molecule C/C(=N\N=C1/NC(=O)CS1)c1ccc(Cl)c(Cl)c1 in the same way.
1 (yes)

Consider next the molecule C/C(=N\N=C1/NC(=O)C(c2ccccc2)S1)c1ccc(Cl)c(Cl)c1 (stereo not drawn) in the same way.
1 (yes)

What do you have for C/C(=N\N=C1/NC(=O)C(C(C)C)S1)c1ccc(Cl)c(Cl)c1 (stereo not drawn) ?
1 (yes)

Similarly, C/C(=N\N=C1\SC(C(C)C)C(=O)N1c1ccccc1)c1ccc(Cl)c(Cl)c1 (stereo not drawn) ?
0 (no)

Here is the next molecule: CCC1S/C(=N/N=C(\C)c2ccc(Cl)c(Cl)c2)N(c2ccccc2)C1=O (stereo not drawn)
0 (no)

What would you report for C/C(=N\N=C1/NC(=O)C(C)S1)c1ccc(Cl)c(Cl)c1 (stereo not drawn) ?
1 (yes)

Would you kindly repeat that for C/C(=N\NC(=S)Nc1ccccc1)c1ccc(Cl)c(Cl)c1 ?
0 (no)

Also C/C(=N\N=C(\N)S)c1ccc(Cl)c(Cl)c1 ?
1 (yes)

Also, C/C(=N\N=C1\SC(C)C(=O)N1c1ccccc1)c1ccc(Cl)c(Cl)c1 (stereo not drawn) please.
1 (yes)

Please do the same for C/C(=N\N=C1\SC(C)C(=O)N1C)c1ccc(Cl)c(Cl)c1 (stereo not drawn) as well.
0 (no)

Param item: CCC1S/C(=N/N=C(\C)c2ccc(Cl)c(Cl)c2)N(C)C1=O (stereo not drawn)
0 (no)

Can you check CCC1S/C(=N/N=C(\C)c2ccc(Cl)c(Cl)c2)NC1=O (stereo not drawn) next?
1 (yes)

Data provenance is ChEMBL document CHEMBL3627689.
